Assay Target: Retinoic acid receptor alpha (Homo sapiens, UniProt P10276)
Sequence (P10276 whole entry): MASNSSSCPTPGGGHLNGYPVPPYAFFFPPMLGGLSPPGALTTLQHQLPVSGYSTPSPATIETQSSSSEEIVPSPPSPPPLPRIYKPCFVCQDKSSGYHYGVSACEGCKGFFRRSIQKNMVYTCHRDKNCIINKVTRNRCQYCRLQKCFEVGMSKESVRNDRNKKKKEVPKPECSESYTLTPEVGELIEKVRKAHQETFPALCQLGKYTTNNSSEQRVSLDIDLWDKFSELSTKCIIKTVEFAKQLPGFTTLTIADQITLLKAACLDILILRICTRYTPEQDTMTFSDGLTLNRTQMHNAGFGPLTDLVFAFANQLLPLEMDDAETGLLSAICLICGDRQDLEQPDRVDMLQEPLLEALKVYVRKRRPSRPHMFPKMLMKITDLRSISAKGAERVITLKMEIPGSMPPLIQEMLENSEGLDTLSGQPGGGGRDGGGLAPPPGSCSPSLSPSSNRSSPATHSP
Assay Remarks: Effective concentration for Retinoic acid receptor alpha activity in CV-1 cells
Measured Attribute: EC50

>  <Molecule>
CC1(C)CCC(C)(C)c2cc(C3CCCc4sc(CCC(=O)O)cc43)ccc21 (centres undefined)

>  <EC50>
> 10 µM

$$$$

Request: I'd like to know its EC50. The molecule in question is COc1cc2c(cc1C1CCCc3oc(/C=C/C(=O)O)cc31)C(C)(C)CCC2(C)C (centres undefined)
Result: > 10 µM

Request: // query EC50 value for entry Cc1oc(/C=C/C(=O)O)cc1Cc1ccc2c(c1)C(C)(C)CCC2(C)C
Result: > 10 µM

Taken from ChEMBL document CHEMBL1149144.
